- System: Vibrio cholerae CO6
- test protocol: Broth microdilution MIC/MBC
- Type: cell-based
- experimental setup: CO6

{"compound": "COC(=O)C1=COC(O)C2C(COC(=O)C3=COC(OC4OC(CO)C(O)C(O)C4O)C4C(COC(C)=O)=CCC34)=CCC12 (stereo not drawn) [Compound 2, canthiumoside 2]", "MBC/MIC": 2}
{"compound": "COC(=O)C1=COC(OC2OC(CO)C(O)C(O)C2O)C2C1CCC2(C)O (stereo not drawn) [Compound 8, mussaenoside]", "MBC/MIC": 1}
{"compound": "COC(=O)C1=COC(OC2OC(CO)C(O)C(O)C2O)C2C(COC(=O)C3=COC(OC4OC(CO)C(O)C(O)C4O)C4C(COC(C)=O)=CCC34)=CCC12 (stereo not drawn) [Compound 3, canthiumoside 3]", "MBC/MIC": 2}
{"compound": "CC1(C)S[C@@H]2[C@H](NC(=O)[C@H](N)c3ccccc3)C(=O)N2[C@H]1C(=O)O [Ampicillin, reference compound]", "MBC/MIC": 1}
{"compound": "COC(=O)C1=COC(OC2OC(CO)C(O)C(O)C2O)C2C(COC(=O)C3=COC(OC(C)=O)C4C(C)CCC34)=CCC12 (stereo not drawn) [Compound 5a, canthiumoside 5a]", "MBC/MIC": 2}
{"compound": "COC(=O)C1=CO[C@@H](O)[C@@H]2C(COC(=O)C3=CO[C@@H](O)[C@@H]4C(COC(C)=O)=CC[C@H]34)=CC[C@H]12 [Compound 1, canthiumoside 1]", "MBC/MIC": 1}

Source of measurements: paper PMC5217663
